- Tested on: Plasmodium falciparum
- assay_info: GSK_TCMDC: Inhibition of Plasmodium falciparum 3D7 in whole red blood cells, using parasite LDH activity as an index of growth. Test compounds present at 2uM
- Assay type: functional
Assign Inhibition to each entry below.
Please give a number only; it is taken to be in %.

Give Inhibition for this entry on Plasmodium falciparum: `O=C(Nc1cccc(-c2nn3ccccc3c2-c2ccnc(Nc3ccccc3)n2)c1)c1c(F)cccc1F` 98

Jot down Inhibition (Plasmodium falciparum) of `CN1CCN(CC(=O)Nc2cccc(-c3ccc(-c4nc5cc(F)ccc5[nH]4)cc3)c2)CC1` . 100

Name the value of Inhibition reported for `CC(=O)Nc1ncc(C(=O)Nc2cccc(-c3ccc(-c4nc5cccc(C)c5[nH]4)cc3)c2)s1` when tested on Plasmodium falciparum. 100

Name the value of Inhibition reported for `Cc1ccc(N2CCc3c(-c4cc5cccnc5nc4C)cc(C)nc32)c(Cl)c1.O=C(O)C(F)(F)F` when tested on Plasmodium falciparum. 96
